test_target: T1, extracellular domain of human FGFR1c expressed with C-terminal V5 and hexahistidine tags (human, UniProt P11362 22-376)
T1 construct: also called hFGFR1c-V5-6His
T1 sequence: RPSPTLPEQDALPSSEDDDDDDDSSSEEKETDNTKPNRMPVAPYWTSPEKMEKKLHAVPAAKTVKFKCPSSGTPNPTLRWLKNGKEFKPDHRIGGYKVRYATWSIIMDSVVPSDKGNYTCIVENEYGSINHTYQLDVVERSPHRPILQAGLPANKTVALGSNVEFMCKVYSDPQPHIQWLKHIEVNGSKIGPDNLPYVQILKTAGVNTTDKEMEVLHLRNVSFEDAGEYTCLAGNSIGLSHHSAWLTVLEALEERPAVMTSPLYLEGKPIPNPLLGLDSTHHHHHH
test_details: SPR, mAb captured, 37 C
Parameter: 180 nM hFGFR1c-V5-6His Bind (RU). Scope: all listed entries.
measured_quantity: 180 nM hFGFR1c-V5-6His Bind (RU)

INSERT INTO assay_data (binder, obs_value) VALUES
  ('H1H8898P (antibody, V domains shown, H1H Fc prefix (human Fc)) VH: QVQLVESGGGLVKPGGSLRLSCAASGFIFSDYYMSWIRQAPGKGLDWISYISPSGSTIYYADSVKGRFTISRDNAKNSLYLQMNSLRADDTAVYYCARTGIQLWSVYFDYWGQGTLVTVSS VL: EIVMTQSPATLSVSPGERATLSCRASQSVGSNLAWYQQKPGQAPRLLIYGASTRANGIPARFSGSGSGTEFTLTISGLQSEDFAVYYCQQYNNWPTFGQGTKLEIK', 0.4),
  ('H2bM8833N (antibody, V domains shown, mouse IgG2 Fc (H2bM prefix)) VH: QVQLVESGGGVVQPGRSLRLSCAASGFTFSRYGIHWVRQAPGKGLEWVAVIWYDGSNKYYADSLKGRFTISRDNSKNTLYLQMNSLRAEDTAVYYCARDQGNYIDYWGQGTLVTVSS VL: AIQMTQSPSSLSASVGDRVTITCRTSQGIRNDLGWYQQKPGKVPKLLIYAASSLQSGVPSRFSGSGSGTDFTLTISSLQPEDFATYYCLQDYNYPFTFGPGTKVDIK', 1.4),
  ('H4H8878P (antibody, V domains shown, human IgG4 Fc (H4H prefix)) VH: QVQLVESGGGVVQPGRSLRLSCAASGFTLNTYGMHWIRQTPGKGLEWVSLISYDETKEYYVDSVKGRFTISRDNSKNTLYLQMNSVRVEDTAVYYCAKPLTGSTDYYYGLDVWGQGTTVTVSS VL: DIQMTQSPSYVSASVGDRVIITCRASQDISSWLAWYQQKPGKAPKLLIYVTSSLESGVPSRFSGSGSGTDFTLTISGLQPEDFATYYCQQVKSFPPTFGPGTKVDIK', 0.8);
